Recorded values, source ChEMBL document CHEMBL2331542.

Test system: Klebsiella pneumoniae
ASSAY METHOD TEXT: Antibacterial activity against Klebsiella pneumoniae isolate 12-2
Type: functional
MEASURED ATTRIBUTE: MIC
Report field: quantity (unit follows the number).

Reported MIC for Klebsiella pneumoniae, given O=C1NC2CCN(c3nc4c(cc3F)c(=O)c(C(=O)O)cn4C3CC3)CC2O1 (centres undefined) ? 2 µg/mL

Reported MIC for Klebsiella pneumoniae, given CO/N=C1\CN(c2nc3c(cc2F)c(=O)c(C(=O)O)cn3C2CC2)CC1CN (centres undefined) ? 0.06 µg/mL

Reported MIC for Klebsiella pneumoniae, given CCO/N=C1\CN(c2nc3c(cc2F)c(=O)c(C(=O)O)cn3C2CC2)CCC1NC (centres undefined) ? 4 µg/mL

Reported MIC for Klebsiella pneumoniae, given CNC1CCN(c2c(F)cc3c(=O)c(C(=O)O)cn4c3c2OC[C@@H]4C)C/C1=N\OC (some centres undefined) ? 1 µg/mL

Reported MIC for Klebsiella pneumoniae, given CNC1CCN(c2nc3c(cc2F)c(=O)c(C(=O)O)cn3-c2ccc(F)cc2F)C/C1=N\OC (centres undefined) ? 1 µg/mL

Reported MIC for Klebsiella pneumoniae, given `C[C@H]1COc2c(N3CCN(C)CC3)c(F)cc3c(=O)c(C(=O)O)cn1c23.C[C@H]1COc2c(N3CCN(C)CC3)c(F)cc3c(=O)c(C(=O)O)cn1c23.O` ? 0.06 µg/mL

Reported MIC for Klebsiella pneumoniae, given CNC1CCN(c2nc3c(cc2F)c(=O)c(C(=O)O)cn3C2CC2)C/C1=N\OC (centres undefined) ? 0.5 µg/mL

Reported MIC for Klebsiella pneumoniae, given CO/N=C1\CN(c2c(F)cc3c(=O)c(C(=O)O)cn4c3c2OC[C@@H]4C)CCC1N (some centres undefined) ? 1 µg/mL

Reported MIC for Klebsiella pneumoniae, given CNC1CCN(c2c(F)cc3c(=O)c(C(=O)O)cn(C4CC4)c3c2OC)C/C1=N\OC (centres undefined) ? 2 µg/mL
